tested on: Mus musculus; experiment: Antiepileptic activity in CF1 mouse assessed as inhibition of maximal electroshock-induced seizures at 300 mg/kg, ip after 4 hrs; type: functional, organism-based; design: dose 300 mg/kg
Calls of active or inactive are those of the source. No cut-off for these calls is given here.
Possible outcomes: active, inactive

> print(dat)
                                    compound     class
 1       CCCCC(CC)C(=O)NC (stereo not drawn)    active
 2       CCC(C(N)=O)C(C)C (stereo not drawn)  inactive
 3         CCCC(CC)C(N)=O (stereo not drawn)    active
 4   CCCC(C(N)=O)C(C)(C)C (stereo not drawn)    active
 5                          CNC(=O)CC(C)(C)C  inactive
 6        CCCCC(CC)C(N)=O (stereo not drawn)  inactive
 7   CC(C)CC(C(N)=O)C(C)C (stereo not drawn)  inactive
 8                             CCC(CC)C(N)=O  inactive
 9    CCC(C(N)=O)C(C)(C)C (stereo not drawn)    active
10                     CCCC(CCC)C(=O)NC(N)=O    active
11  CCCCC(CC)C(=O)NC(N)=O (stereo not drawn)  inactive
12  CCCC(C(=O)NC(N)=O)C(C)C (stereo not drawn)    active
13  CC(C)C(C(N)=O)C(C)(C)C (stereo not drawn)    active
14     CCCC(C(=O)NC)C(C)C (stereo not drawn)  inactive
15     CCCC(C(N)=O)C(C)CC (stereo not drawn)  inactive
16                      CNC(=O)C(C(C)C)C(C)C  inactive
17   CCC(C)C(C(N)=O)C(C)C (stereo not drawn)  inactive
18                     CC(C)(C)CC(=O)NC(N)=O  inactive
19                 CC(C)C(C(=O)NC(N)=O)C(C)C    active
20     CCC(C)C(CC)C(=O)NC (stereo not drawn)  inactive
21          CCCC(C)C(N)=O (stereo not drawn)  inactive
22                           CC(C)(C)CC(N)=O  inactive
23                            CC(C)(C)C(N)=O  inactive
24     CCCC(CC(C)C)C(N)=O (stereo not drawn)  inactive
25  CCC(C)C(CC)C(=O)NC(N)=O (stereo not drawn) [CAPURIDE]    active
26           CCC(C)C(N)=O (stereo not drawn)  inactive
27      CCC(CC(C)C)C(N)=O (stereo not drawn)  inactive
28        CC(C)C(C)C(N)=O (stereo not drawn)  inactive

----------
tested on: Mus musculus; test: Antiepileptic activity in CF1 mouse assessed as inhibition of maximal electroshock-induced seizures at 300 mg/kg, ip after 0.5 hrs; format: functional, organism-based; design: dose 300 mg/kg
Active and inactive are the calls of the source. The calls are words filed in the database; no cut-off is given here.
Outcomes: 1 (yes) for active, 0 (no) for inactive

> print(dat)
                                  molecule   system.name    class
1                    CCCC(CCC)C(=O)NC(N)=O  Mus musculus  1 (yes)
2                CC(C)C(C(=O)NC(N)=O)C(C)C  Mus musculus  1 (yes)
3     CCC(CC(C)C)C(N)=O (stereo not drawn)  Mus musculus  1 (yes)
4    CCCC(CC(C)C)C(N)=O (stereo not drawn)  Mus musculus  1 (yes)
5    CCCC(C(N)=O)C(C)CC (stereo not drawn)  Mus musculus  1 (yes)
6      CCCCC(CC)C(=O)NC (stereo not drawn)  Mus musculus  1 (yes)
7  CC(C)CC(C(N)=O)C(C)C (stereo not drawn)  Mus musculus   0 (no)
8    CCC(C)C(CC)C(=O)NC (stereo not drawn)  Mus musculus   0 (no)
